Taken from PubChem BioAssay AID720504.

- system: Serine/threonine-protein kinase PLK1 (Homo sapiens)
- procedure.details: qHTS for Inhibitors of PLK1-PDB (polo-like kinase 1 - polo-box domain): Primary Screen; also: series mostly up to about 57 µM; % is scaled to controls: 0 for no effect and ±100 for the full control effect; nearly all actives have a fitted effect of over 65% in size
- protocol.conditions: Plk1 PBD binding of FITC phosphopeptide, fluorescence polarization
The campaign covered roughly 360,000 compounds. About 10,000 (2.8%) were called active. Roughly 4% stayed inconclusive and do not appear here. The sample holds actives, similar compounds and a random draw of the others, so the mix is not that of the screen.
parameter: max response, negative = inhibition

The reported max response, negative = inhibition of the compound CCc1cc(C(=O)N(CC)CC(=O)Nc2c(F)cccc2F)sc1C was -2.84% (inactive)

Looking up COc1ccc(COC[C@H](CC(C)C)N2CCN(C(=O)c3cccc(C(F)(F)F)c3)CCC2=O)cc1 , I found its max response, negative = inhibition recorded as -20.7% (inactive)

Memo: CCCCC(=O)N(C)c1c(CC)nc2c(OCc3ccc(Cl)cc3Cl)cccn12 , reported max response, negative = inhibition: -5.31% (inactive)

Looking up CO[C@@H]1CN(C)C(=O)c2cc(NC(=O)Nc3cc(F)ccc3F)ccc2OC[C@H](C)N(C(=O)c2ccccn2)C[C@@H]1C , I found its max response, negative = inhibition recorded as -4.19% (inactive)

So, COc1ccc(CCNC(=O)Cn2c(=O)n(CC3CCCO3)c(=O)c3ccccc32)cc1OC (stereo unspecified) ? Its max response, negative = inhibition was -13.3% (inactive)

# max response, negative = inhibition of COCCCNC(=O)CN1CCN(Cc2ccccc2Cl)C1=O = -7.04% (inactive)
